Assay: Plasma pharmacokinetics of irinotecan and SN-38 (reversed-phase HPLC)
Settings: human, plasma, intravenous, Irinotecan AUC, dose level I (irinotecan 175, raltitrexed 2.6 mg m-2); cycle 1; n=3
Protocol: Other radiological investi- gations were carried out if indicated. […] Pharmacokinetic analysis was performed using WinNonlin software. […] Patients were seen weekly while on treatment.
Where a name gives a salt, the structure may show the parent alone.
ASSAY_ENDPOINT: AUC (ng·h/mL)
Give bare numbers, in ng·h/mL.

What value of measured AUC is listed for CCc1c2c(nc3ccc(OC(=O)N4CCC(N5CCCCC5)CC4)cc13)-c1cc3c(c(=O)n1C2)COC(=O)[C@]3(O)CC [irinotecan, Irinotecan hydrochloride] ?
13100

These data points were gathered from paper PMC2363476.
